These data points were gathered from ChEMBL document CHEMBL1201862.

- Tested on: NCI-H226
- Assay Summary: NCI tumour cell line growth inhibition, 48 h
The source made the active and inactive calls. Cut-off read from the data, not from the text of the source: active = GI50 up to about 1.1 µM and inactive = higher.
Assay Endpoint: GI50

Please review the following examples before continuing.
INSERT INTO measurements (compound, assay_endpoint, data_value) VALUES
  ('CC1=Nc2ccccc2C1C(Cc1ccccc1N)c1c(C)[nH]c2ccccc12 (stereo unspecified)', 'GI50', '15 µM (inactive)'),
  ('O=S1(=O)CCN(Cc2ccccc2)/C1=N\S(=O)(=O)c1ccc(Cl)cc1', 'GI50', '17.8 µM (inactive)'),
  ('Cc1cccc(C)c1NC(=O)C(=O)C(C#N)c1ccccc1Cl (stereo unspecified)', 'GI50', '> 100 µM (inactive)'),
  ('S=C1CC(c2ccc(Cl)cc2)Sc2ccccc2N1 (stereo unspecified)', 'GI50', '50.5 µM (inactive)'),
  ('Cc1ccc(S(=O)(=O)Nc2cc(O)nc3c2CCC3)cc1', 'GI50', '> 100 µM (inactive)');

Consider the additional compound presented here.
Field GI50 (entry COc1ccc2[nH]c3c(C)c4c(c(C)c3c2c1)CN(C)CC4 ) reads 15.8 µM (inactive)
